Test system: T. cruzi nitroreductase enzyme (TcNTR)
Assay: Kinetic assay with Trypanosoma cruzi nitroreductase enzyme (NADH oxidation)
Type: biochemical
Conditions: 50 µM derivative, ratio of mean Kobs to BZN
Below, each of the compounds is paired with its reported Kobs Deriv./Kobs BZN 50 µM value.
Lab note: write the figure by itself, no unit.

Example entries begin here.
> print(dat)
                                   compound  test.value
1  O=[N+]([O-])c1ncn(CC(O)c2ccc(F)cc2F)n1 (stereo not shown) [Compound 8]         3.0
2  O=C(Cn1cnc([N+](=O)[O-])n1)c1ccc(F)cc1F [Compound 5]         1.6
3  O=C(Cn1ccnc1[N+](=O)[O-])c1ccc(F)cc1F [Compound 6]         0.3

Turning now to a further compound:
Which Kobs Deriv./Kobs BZN 50 µM value belongs to O=[N+]([O-])c1nccn1CC(O)c1ccc(F)cc1F (stereo not shown) [Compound 9] ?
1.2

====

Test: in vitro
Type: cell-based
Conditions: human
Description: The Lactate Desidrogenase (LDH) Cytotoxicity Detection Kit^PLUS and the Cell Proliferation Reagent WST-1 assays were performed according to the manufacturer’s protocols. […] After 10 min of incubation in the dark at room temperature, 25 µL of stop solution was added to each well, and the absorbance was measured at 492 nm on a microplate reader (Polaris, Celer, MG, Brazil). […] The absorbance was measured at 440 nm. […]
metric-name: CC50 at 48 h

Example molecules with recorded CC50 at 48 h:
> print(dat)
                                   molecule   metric.name  test.value
1  O=[N+]([O-])c1nccn1CC(O)c1ccc(F)cc1F (stereo not drawn)  CC50 at 48 h    > 500 µM
2  O=[N+]([O-])c1ncn(CC(O)c2ccc(F)cc2F)n1 (stereo not drawn)  CC50 at 48 h    > 500 µM

For O=C(Cn1ccnc1[N+](=O)[O-])NCc1ccccc1 [BZN, benznidazole, reference compound] , what is its reported CC50 at 48 h?
> 500 µM

====

Assay: in vitro
Assay type: cell-based
Conditions: human
CC50 at 72 h listing for selected compounds.

> print(dat)
                                   compound  test.value
1  O=C(Cn1ccnc1[N+](=O)[O-])NCc1ccccc1 [BZN, benznidazole, reference compound]    > 500 µM

What does the data say about its CC50 at 72 h? Entry: O=[N+]([O-])c1nccn1CC(O)c1ccc(F)cc1F (centres unmarked)
> 500 µM

====

Assay: in vitro
Type: cell-based
Conditions: human
Readings of CC50 at 72 h for the listed compounds

Given the compound O=C(Cn1ccnc1[N+](=O)[O-])NCc1ccccc1 [BZN, benznidazole, reference compound] , what is its reported CC50 at 72 h?
> 500 µM

Entry to check: O=[N+]([O-])c1nccn1CC(O)c1ccc(F)cc1F (centres unmarked)
> 500 µM

====

Test system: T. cruzi (Tulahuen strain)
Experiment: In vitro anti-T. cruzi evaluation in an intracellular model (trypomastigote and amastigote forms, L929 host cells, β-galactosidase readout)
Format: cell-based, Trypanosoma cruzi
Conditions: Trypanosoma cruzi, TULAHUEN, L929, 96 h, read-out: IC50 T. cruzi
Method: Derivatives 5–10 were evaluated in vitro against T. cruzi in an intracellular model on the trypomastigote and amastigote forms of the parasite of the Tulahuen strain [20]. […] This assay was performed as previously described by Buckner et al. (1996) using T. cruzi (Tulahuen strain), which expresses the β-galactosidase gene of Escherichia coli. […] After this, the absorbance was measured at 570 nm. […]
metric-name: IC50 (nM)
All answers are understood in nM, so give the number only.

Give the measured IC50 of O=C(Cn1ccnc1[N+](=O)[O-])NCc1ccccc1 [BZN, benznidazole, reference compound] .
1500
